Here the recorded inhibition at 1000 µM is given for each entry.
- tested_system: UniProtKB P27338
- Sequence (P27338 whole entry): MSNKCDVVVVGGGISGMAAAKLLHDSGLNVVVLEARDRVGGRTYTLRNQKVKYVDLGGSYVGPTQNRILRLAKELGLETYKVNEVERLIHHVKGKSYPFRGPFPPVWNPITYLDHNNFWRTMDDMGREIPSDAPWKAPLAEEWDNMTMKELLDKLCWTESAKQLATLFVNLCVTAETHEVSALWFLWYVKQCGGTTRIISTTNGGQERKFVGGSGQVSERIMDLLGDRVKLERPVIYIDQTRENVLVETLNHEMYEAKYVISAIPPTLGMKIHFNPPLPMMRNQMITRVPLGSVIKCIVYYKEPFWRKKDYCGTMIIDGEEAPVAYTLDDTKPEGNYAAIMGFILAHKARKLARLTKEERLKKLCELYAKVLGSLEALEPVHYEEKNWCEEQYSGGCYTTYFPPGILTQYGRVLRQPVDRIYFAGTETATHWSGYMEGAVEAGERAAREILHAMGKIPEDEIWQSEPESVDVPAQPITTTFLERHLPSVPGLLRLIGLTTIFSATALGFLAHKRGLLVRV
- protocol: MAO-B inhibition, in vitro fluorometric method
- Type: biochemical
- experimental_parameters: read-out: MAO-B % inhibition, 10^−3 M
Write the value in % as a bare number.

// worked examples, inhibition at 1000 µM included
CCN1CCN(Cc2ccc(C(=O)Nc3nc4ccccc4s3)cc2)CC1; 73.3
C=CCN1CCN(Cc2ccc(C(=O)Nc3nc4ccccc4s3)cc2)CC1; 69.6
CN(C)CCCN1CCN(Cc2ccc(C(=O)Nc3nc4ccccc4s3)cc2)CC1; 74.2
C=CCN1CCN(Cc2ccc(C(=O)Nc3nc4cc(OC)ccc4s3)cc2)CC1; 74.5

Can you look up the measured inhibition at 1000 µM of "CCN1CCN(Cc2ccc(C(=O)Nc3nc4cc(OC)ccc4s3)cc2)CC1" for me? 75.6

Sourced from paper PMC9389372
